Test system: L. donovani HU3 strain in mouse peritoneal macrophages
measurement-notes: Assay for proliferation of Leishmania parasites in infected mouse peritoneal macrophages (SybrGreen staining, high-content imaging, 5 days)
Format: cell-based, Leishmania donovani
experimental-parameters: Leishmania donovani, Peritoneal macrophage, L. donovani in mouse peritoneal macrophages, inhibition of proliferation; read-out: L. donovani Macrophage EC50
Rule for this label: yes (1) means EC50 is less than 1000 nM; no (0) means EC50 is at least 1000 nM.

molecule	category
Cc1cc(C(=O)Nc2ccc(F)c(-c3cn4cc(NC(=O)OC(C)C)cnc4n3)c2)[nH]n1 [Compound 79]	no (0)
CC(C)OC(=O)Nc1cnc2nc(-c3cc(NC(=O)N(C)CC(F)(F)F)ccc3Cl)cn2c1 [Compound 255]	yes (1)
CNc1ccc(-c2cnc3nc(-c4cc(NC(=O)N5CCCC5)ccc4Cl)cn3c2)cc1 [Compound 26]	yes (1)
O=C(Nc1ccc(F)c(-c2cn3cc(C4=CCOCC4)cnc3n2)c1)N1CCCC1 [Compound 353]	yes (1)
Cc1nc(C)c(C(=O)Nc2ccc(F)c(-c3cn4cc(Cl)cnc4n3)c2)o1 [Compound 205]	no (0)
CNc1ccc(-c2cnc3nc(-c4cc(NC(=O)c5ccc(C)o5)ccc4Cl)cn3c2)cc1 [Compound 33]	yes (1)
CC(C)CN(C)C(=O)Nc1ccc(Cl)c(-c2cn3cc(NC(=O)OC(C)C)cnc3n2)c1 [Compound 249]	no (0)
CC(C)OC(=O)Nc1cnc2nc(-c3cc(NC(=O)c4ccc(Br)o4)ccc3F)cn2c1 [Compound 70]	yes (1)
O=C(Nc1cnc2nc(-c3cc(NC(=O)N4CCCC4)ccc3F)cn2c1)c1ccccn1 [Compound 147]	yes (1)
O=C(Nc1ccc(F)c(-c2cn3cc(C4=CCCC4)cnc3n2)c1)N1CCCC1 [Compound 354]	yes (1)
CC(C)OC(=O)Nc1cnc2nc(-c3cc(NC(=O)NC4CCC4)ccc3Cl)cn2c1 [Compound 269]	no (0)
CC(C)OC(=O)Nc1cnc2nc(-c3cc(NC(=O)c4ccc(C#N)o4)ccc3Cl)cn2c1 [Compound 48]	yes (1)
Cc1ncc(C(=O)Nc2ccc(F)c(-c3cn4cc(C(F)(F)F)cnc4n3)c2)o1 [Compound 201]	yes (1)
COC(C)C(=O)Nc1ccc(Cl)c(-c2cn3cc(NC(=O)OC(C)C)cnc3n2)c1 (centres unmarked) [Compound 54]	no (0)
O=C(Nc1ccc(F)c(-c2cn3cc(F)cnc3n2)c1)N1CCC1 [Compound 232]	no (0)
CC(C)OC(=O)Nc1cnc2nc(-c3cc(NC(=O)N(C)C)ccc3F)cn2c1 [Compound 219]	no (0)
CC(C)OC(=O)Nc1cnc2nc(-c3cc(NC(=O)c4ccc(Cl)o4)ccc3F)cn2c1 [Compound 64]	yes (1)

---

Test system: Trypanosoma brucei Lister 427 strain, bloodstream form
measurement-notes: Assay for proliferation of kinetoplastid parasite Trypanosoma brucei (Cell Titer Glo, 48 hours)
Assay type: cell-based
experimental-parameters: Trypanosoma brucei, T. brucei Lister 427 bloodstream form; read-out: T. brucei EC50
Method: Assay for Proliferation of Kinetoplastid Parasite Trypanosoma brucei. The proliferation is quantified by the addition of Cell Titer Glo (Promega®) a luminescent cell viability assay that measures the number of viable cells in culture based on the quantification of cellular ATP amount, which is an indicator of metabolically active cells. […] Trypanosoma brucei Lister 427 strain is grown in HMI-9 Trypanosome media for T. brucei bloodstream form. […] The plates are then read for luminescence. […]
pEC50: −log10 of the molar value.
Returns one of label 1 or label 0; label 1 when pEC50 is >= 7.

smiles-str	category
Cc1nc(C)c(C(=O)Nc2ccc(F)c(-c3cn4cc(-c5ncc(F)cc5C)cnc4n3)c2)o1	label 1
Cc1ccc(-c2cnc3nc(-c4cc(NC(=O)c5oc(C)nc5C)ccc4F)cn3c2)nc1	label 1
CN(C)c1cnc2nc(-c3cc(NC(=O)N4CC(F)C4)ccc3F)cn2c1	label 1
Cc1nc(C)c(C(=O)Nc2ccc(F)c(-c3cn4cc(C5=CC(C)(C)OC(C)(C)C5)cnc4n3)c2)o1	label 0
O=CNc1cnc2nc(-c3cc(NC(=O)N4CCCC4)ccc3F)cn2c1	label 0
CC(C)OC(=O)Nc1cnc2nc(-c3cc(Nc4ccccn4)ccc3F)cn2c1	label 0
